tested on: surface layers of the skin (superficial stratum corneum); experiment: Moisturizing efficiency of gel evaluated by corneometry; type: in vivo, human; details: T1 h after application; gel 6% by weight + 1% carbomer, around 2 mg/cm^2, inner forearm, ten volunteers
measuredQuantity: mean hydration value (Corneometer capacitance)

Past entries and their recorded results:
| compound | systemTested | obsValue |
| --- | --- | --- |
| O[C@@H]1CO[C@H]2[C@@H]1OC[C@@H]2O [Isosorbide, 1,4:3,6-dianhydrosorbitol] | surface layers of the skin (superficial stratum corneum) | 56.60 AU |
| C[N+](C)(C)CC(=O)O [Betaine] | surface layers of the skin (superficial stratum corneum) | 55.61 AU |
| OC[C@@H](O)[C@@H](O)[C@H](O)[C@@H](O)CO [Sorbitol] | surface layers of the skin (superficial stratum corneum) | 54.16 AU |
| OCC(O)CO [Glycerol] | surface layers of the skin (superficial stratum corneum) | 57.05 AU |

Okay, now this compound:
[in] Hi! What's the reported mean hydration value (Corneometer capacitance) for OC[C@@H](O)[C@H](O)[C@@H](O)CO [Xylitol] on surface layers of the skin (superficial stratum corneum)?
[out] 55.37 AU

###

test system: surface layers of the skin (superficial stratum corneum); assay: Moisturizing efficiency of gel evaluated by corneometry; format: in vivo, human; conditions: T4 h vs T0; (T…h-T0)/T0*100; gel 6% by weight
measuredQuantity: Mean variations in % of hydration

| molecule | systemTested | measuredQuantity | obsValue |
| --- | --- | --- | --- |
| O[C@@H]1CO[C@H]2[C@@H]1OC[C@@H]2O [Isosorbide, 1,4:3,6-dianhydrosorbitol] | surface layers of the skin (superficial stratum corneum) | Mean variations in % of hydration | 12.8% |
| OCC(O)CO | surface layers of the skin (superficial stratum corneum) | Mean variations in % of hydration | 34.6% |
| C[N+](C)(C)CC(=O)O | surface layers of the skin (superficial stratum corneum) | Mean variations in % of hydration | 16.9% |

[in] Query (molecule): OC[C@@H](O)[C@H](O)[C@@H](O)CO ; field requested: Mean variations in % of hydration
[out] −1.4%

[in] Now this one: OC[C@@H](O)[C@@H](O)[C@H](O)[C@@H](O)CO
[out] −3.5%

###

system: surface layers of the skin (superficial stratum corneum); assay: Moisturizing efficiency of gel evaluated by corneometry; format: in vivo, human; settings: T2 h vs T0; (T…h-T0)/T0*100; gel 6% by weight
Reported values of Mean variations in % of hydration for individual entries
Kindly format the answer as number then unit.

| compound | systemTested | Mean variations in % of hydration |
| --- | --- | --- |
| C[N+](C)(C)CC(=O)O | surface layers of the skin (superficial stratum corneum) | 25.1% |
| OCC(O)CO | surface layers of the skin (superficial stratum corneum) | 33.6% |
| O[C@@H]1CO[C@H]2[C@@H]1OC[C@@H]2O [Isosorbide, 1,4:3,6-dianhydrosorbitol] | surface layers of the skin (superficial stratum corneum) | 13.6% |
| OC[C@@H](O)[C@@H](O)[C@H](O)[C@@H](O)CO | surface layers of the skin (superficial stratum corneum) | 1.0% |

Moving on to another compound below.
[in] Report Mean variations in % of hydration for OC[C@@H](O)[C@H](O)[C@@H](O)CO tested on surface layers of the skin (superficial stratum corneum).
[out] 14.7%
